# assaySetup: not told
endpoint: Membrane permeability

| givenSmiles | endpoint | observedValue |
| --- | --- | --- |
| O=[N+]([O-])OCC(CO[N+](=O)[O-])O[N+](=O)[O-] | Membrane permeability | + |
| N[C@@H](CSN=O)C(=O)O | Membrane permeability | + |
| C=CC1=C(C)c2cc3[n-]c(cc4[n-]c(cc5nc(cc1n2)C(C)=C5C=C)c(C)c4CCC(=O)[O-])c(CCC(=O)[O-])c3C.N#[O+].[Fe].[H+].[H+] | Membrane permeability | − |
| N[C@H](CSN=O)C(=O)O | Membrane permeability | − |

Then there is this molecule:
Incoming: # return recorded Membrane permeability for entry N[C@@H](CCC(=O)N[C@@H](CSN=O)C(=O)NCC(=O)O)C(=O)O
Outgoing: −
